Target: UniProt P31424
Sequence (P31424 whole entry): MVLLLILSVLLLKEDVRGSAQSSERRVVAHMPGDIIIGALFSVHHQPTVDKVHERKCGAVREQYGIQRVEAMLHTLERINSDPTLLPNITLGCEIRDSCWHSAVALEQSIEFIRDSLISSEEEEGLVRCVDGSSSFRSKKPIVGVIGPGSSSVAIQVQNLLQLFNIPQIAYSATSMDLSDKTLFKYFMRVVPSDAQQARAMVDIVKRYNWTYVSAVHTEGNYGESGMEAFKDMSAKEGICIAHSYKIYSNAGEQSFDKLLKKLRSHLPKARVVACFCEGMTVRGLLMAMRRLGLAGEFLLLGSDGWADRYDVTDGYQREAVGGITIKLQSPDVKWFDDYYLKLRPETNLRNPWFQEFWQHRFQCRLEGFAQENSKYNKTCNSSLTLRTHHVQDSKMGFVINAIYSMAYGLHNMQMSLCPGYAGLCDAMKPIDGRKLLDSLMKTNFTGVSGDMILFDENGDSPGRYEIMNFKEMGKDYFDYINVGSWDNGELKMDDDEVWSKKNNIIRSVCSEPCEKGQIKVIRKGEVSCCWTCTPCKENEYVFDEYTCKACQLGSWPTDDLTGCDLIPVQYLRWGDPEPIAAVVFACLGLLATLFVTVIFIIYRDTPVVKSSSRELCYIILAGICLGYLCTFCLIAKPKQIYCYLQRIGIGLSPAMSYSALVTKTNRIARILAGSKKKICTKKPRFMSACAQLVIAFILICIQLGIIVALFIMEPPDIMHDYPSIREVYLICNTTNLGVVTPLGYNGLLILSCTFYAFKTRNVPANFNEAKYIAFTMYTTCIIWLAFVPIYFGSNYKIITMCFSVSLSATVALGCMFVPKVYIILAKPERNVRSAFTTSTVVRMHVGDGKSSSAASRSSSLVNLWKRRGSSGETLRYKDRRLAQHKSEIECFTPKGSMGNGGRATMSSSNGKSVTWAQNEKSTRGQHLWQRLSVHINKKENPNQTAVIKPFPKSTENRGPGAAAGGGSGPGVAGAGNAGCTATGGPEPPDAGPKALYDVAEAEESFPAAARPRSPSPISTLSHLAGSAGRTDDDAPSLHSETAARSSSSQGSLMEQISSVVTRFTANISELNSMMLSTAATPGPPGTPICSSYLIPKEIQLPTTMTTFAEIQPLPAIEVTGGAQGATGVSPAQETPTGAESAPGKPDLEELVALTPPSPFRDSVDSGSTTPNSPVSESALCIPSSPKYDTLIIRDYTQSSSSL
Assay: Activity at rat mGluR5 expressed in CHO cells assessed as potentiation of glutamate response by FLIPR assay
# EC50 values compiled below

{"columns": ["entry.smiles", "system.under.test", "EC50"],
 "data": [
  ["O=C(Nc1ccc(Cl)cc1CN1C(=O)c2ccccc2C1=O)c1cccnc1", "UniProt P31424", "> 1000 nM"],
  ["COc1cccc(C(=O)Nc2ccc(Cl)cc2CN2C(=O)c3ccccc3C2=O)c1", "UniProt P31424", "> 1000 nM"]
]}

Now, please, on to the next molecule.
Q. So what does the record say about EC50 for "O=C(Nc1ccc(Cl)cc1CN1C(=O)c2ccccc2C1=O)c1ccco1" ?
A. > 1000 nM

###

Biological target: Metabotropic glutamate receptor 5 (Homo sapiens)
Test: Activity at human mGluR5 expressed in CHO cells assessed as potentiation of glutamate response by FLIPR assay
Type: cell-based
Sequence (P41594 whole entry): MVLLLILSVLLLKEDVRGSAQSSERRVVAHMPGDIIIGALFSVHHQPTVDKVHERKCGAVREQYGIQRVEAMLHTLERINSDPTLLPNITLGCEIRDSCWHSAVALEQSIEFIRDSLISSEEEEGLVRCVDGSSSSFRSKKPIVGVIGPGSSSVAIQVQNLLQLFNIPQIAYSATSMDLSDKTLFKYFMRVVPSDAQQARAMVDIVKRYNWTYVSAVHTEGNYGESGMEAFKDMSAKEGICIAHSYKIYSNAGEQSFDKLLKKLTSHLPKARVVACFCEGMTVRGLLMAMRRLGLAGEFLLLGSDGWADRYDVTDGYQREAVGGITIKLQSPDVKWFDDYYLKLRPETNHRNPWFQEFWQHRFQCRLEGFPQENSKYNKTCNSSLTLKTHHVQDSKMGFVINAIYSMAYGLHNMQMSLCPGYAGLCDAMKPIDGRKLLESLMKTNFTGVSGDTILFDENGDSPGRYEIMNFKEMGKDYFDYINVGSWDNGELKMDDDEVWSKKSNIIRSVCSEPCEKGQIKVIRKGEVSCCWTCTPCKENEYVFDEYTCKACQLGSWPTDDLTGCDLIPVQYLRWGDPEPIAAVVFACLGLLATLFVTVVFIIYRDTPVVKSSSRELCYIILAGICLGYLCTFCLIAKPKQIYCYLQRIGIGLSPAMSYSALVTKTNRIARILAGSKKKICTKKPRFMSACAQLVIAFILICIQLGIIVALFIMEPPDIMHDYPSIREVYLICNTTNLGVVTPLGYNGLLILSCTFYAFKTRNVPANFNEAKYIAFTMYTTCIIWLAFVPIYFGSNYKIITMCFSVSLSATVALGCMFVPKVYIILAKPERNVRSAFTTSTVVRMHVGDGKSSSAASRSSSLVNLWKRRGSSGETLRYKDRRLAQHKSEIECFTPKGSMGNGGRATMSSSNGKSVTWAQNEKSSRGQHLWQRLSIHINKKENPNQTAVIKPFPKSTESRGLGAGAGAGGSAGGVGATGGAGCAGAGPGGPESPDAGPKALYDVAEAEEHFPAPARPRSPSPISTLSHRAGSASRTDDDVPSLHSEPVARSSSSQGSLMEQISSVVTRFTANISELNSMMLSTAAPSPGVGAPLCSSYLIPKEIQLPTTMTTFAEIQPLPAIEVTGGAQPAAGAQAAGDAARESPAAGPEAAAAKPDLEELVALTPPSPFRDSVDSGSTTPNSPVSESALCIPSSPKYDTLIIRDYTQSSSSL
readout.type: EC50 (µM)
The answer is to be given in µM; state only the numeric part.

Worked cases, answers included:
{"columns": ["entry.smiles", "result.units", "obs.value"],
 "data": [
  ["O=C(Nc1ccc(Cl)cc1CN1C(=O)c2ccccc2C1=O)c1ccco1", "µM", 2.3],
  ["O=C(CCc1cc(Cl)ccc1NC(=O)c1ccccn1)c1ccccc1", "µM", 4.5],
  ["COc1ccc(NC(=O)c2ccccn2)c(CN2C(=O)c3ccccc3C2=O)c1", "µM", 1.4]
]}

Q. Requested read-out EC50, target or system Metabotropic glutamate receptor 5 (Homo sapiens), entry "O=C(Nc1ccc(Cl)cc1CN1C(=O)c2ccc(F)cc2C1=O)c1ccccn1"
A. 0.33

###

Biological target: Metabotropic glutamate receptor 5 (Homo sapiens, UniProt P41594)
Assay: Activity at human mGluR5 expressed in CHO cells assessed as potentiation of glutamate response by FLIPR assay relative to glutamate
Assay type: cell-based
Sequence (P41594 21-1212 limits assumed): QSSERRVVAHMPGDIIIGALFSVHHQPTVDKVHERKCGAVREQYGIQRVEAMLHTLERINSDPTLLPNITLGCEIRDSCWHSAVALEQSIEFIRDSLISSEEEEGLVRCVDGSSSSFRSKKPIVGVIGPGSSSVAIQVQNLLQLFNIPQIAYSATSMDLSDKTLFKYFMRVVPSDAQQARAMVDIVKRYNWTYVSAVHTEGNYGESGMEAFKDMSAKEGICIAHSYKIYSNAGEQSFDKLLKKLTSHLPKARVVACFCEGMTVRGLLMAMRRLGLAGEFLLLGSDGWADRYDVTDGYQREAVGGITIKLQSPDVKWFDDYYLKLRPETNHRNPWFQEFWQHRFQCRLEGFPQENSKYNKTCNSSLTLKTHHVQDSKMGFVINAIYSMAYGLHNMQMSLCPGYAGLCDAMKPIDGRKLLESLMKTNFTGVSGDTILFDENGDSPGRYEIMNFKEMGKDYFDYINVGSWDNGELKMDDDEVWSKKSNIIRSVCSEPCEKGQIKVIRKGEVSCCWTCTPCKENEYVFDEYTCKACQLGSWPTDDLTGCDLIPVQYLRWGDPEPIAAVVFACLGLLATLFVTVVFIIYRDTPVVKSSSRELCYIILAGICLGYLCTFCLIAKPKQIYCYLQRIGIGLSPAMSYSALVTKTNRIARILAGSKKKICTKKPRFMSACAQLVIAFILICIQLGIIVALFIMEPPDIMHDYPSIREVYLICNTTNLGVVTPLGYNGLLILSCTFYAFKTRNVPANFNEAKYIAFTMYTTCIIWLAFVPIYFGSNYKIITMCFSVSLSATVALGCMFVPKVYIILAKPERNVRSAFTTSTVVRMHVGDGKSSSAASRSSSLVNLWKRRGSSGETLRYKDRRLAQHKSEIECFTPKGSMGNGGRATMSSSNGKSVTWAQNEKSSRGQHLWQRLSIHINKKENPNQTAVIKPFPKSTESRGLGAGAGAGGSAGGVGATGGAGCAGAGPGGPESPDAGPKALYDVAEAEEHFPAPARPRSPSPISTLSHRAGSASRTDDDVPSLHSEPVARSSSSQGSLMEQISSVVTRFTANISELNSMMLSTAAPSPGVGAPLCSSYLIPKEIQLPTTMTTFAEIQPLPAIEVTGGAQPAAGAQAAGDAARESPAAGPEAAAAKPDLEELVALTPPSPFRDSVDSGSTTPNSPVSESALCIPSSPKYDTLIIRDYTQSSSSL
Under this convention, 1 denotes Activity strictly below 4 and -1 denotes Activity at or above 4.

Worked examples follow.
{"columns": ["entry.smiles", "category.label"],
 "data": [
  ["O=C(Nc1ccc(Cl)cc1CN1C(=O)c2ccccc2C1=O)c1ncccc1O", -1],
  ["CCOc1cccc2c1C(=O)N(Cc1cc(Cl)ccc1NC(=O)c1ccccn1)C2=O", -1],
  ["O=C(Nc1ccc(Cl)cc1CN1C(=O)c2ccccc2C1=O)c1cccnc1", 1]
]}

Please find the next compound below.
Q. Hello, I'm reviewing records and need to know if Activity of "O=C(Nc1ccc(Cl)cc1CN1C(=O)c2ccccc2C1=O)c1ccccc1" is below 4. Could you check?
A. 1

###

Target: Metabotropic glutamate receptor 5 (Homo sapiens, UniProt P41594)
Experiment: Activity at human mGluR5 expressed in CHO cells assessed as potentiation of glutamate response by FLIPR assay
Type: cell-based
pEC50: −log10 of the molar value.
Quick rule: pEC50 of at least 6 means t, below that means f.

{"columns": ["entry.smiles", "category.label"],
 "data": [
  ["O=C(Nc1ccc(Cl)cc1CN1C(=O)c2ccccc2C1=O)c1ncccc1O", "t"]
]}

Q. Threshold query (pEC50 >= 6) on "COc1ccc2c(c1OC)C(=O)N(Cc1cc(Cl)ccc1NC(=O)c1ccccn1)C2=O"
A. f

Q. Moving on to the next compound: "O=C(Nc1ccc(Cl)cc1CN1C(=O)c2ccccc2C1=O)c1ccccc1C(F)(F)F"
A. f

Q. Moving on to the next compound: "CCN(Cc1cc(Cl)ccc1NC(=O)c1ccccn1)C(=O)c1cc(Cl)cc(Cl)c1"
A. t

Q. Moving on to the next compound: "O=C(Nc1ccc(Cl)cc1CN1C(=O)c2ccccc2C1=O)c1cccnc1"
A. f

Q. Moving on to the next compound: "O=C(Nc1ccc(Cl)cc1CN1C(=O)c2ccccc2C1=O)c1ncccn1"
A. f

Q. Moving on to the next compound: "Cc1ccc2c(c1C)C(=O)N(Cc1cc(Br)ccc1NC(=O)c1ccccn1)C2=O"
A. f

Q. Moving on to the next compound: "O=C(Nc1ccc(Cl)cc1CN1C(=O)c2ccccc2C1=O)c1ccccn1"
A. t

Q. Moving on to the next compound: "O=C(/C=C/c1cc(Cl)ccc1NC(=O)c1ccccn1)c1ccccc1"
A. f

Q. Moving on to the next compound: "O=C(Nc1ccc(Cl)cc1CN1C(=O)c2ccccc2C1=O)c1cccnn1"
A. f

Q. Moving on to the next compound: "O=C(Nc1ccccc1CN1C(=O)c2ccccc2C1=O)c1ccccn1"
A. f

Q. Moving on to the next compound: "O=C(Nc1ccc(Cl)cc1CN1C(=O)c2ccccc2C1=O)c1ccccc1[N+](=O)[O-]"
A. f

Q. Moving on to the next compound: "CCOc1cccc2c1C(=O)N(Cc1cc(Cl)ccc1NC(=O)c1ccccn1)C2=O"
A. t

Q. Moving on to the next compound: "Cc1ccc2c(c1C)C(=O)N(Cc1cc(Cl)ccc1NC(=O)c1ccccn1)C2=O"
A. f

Q. Moving on to the next compound: "O=C(Nc1ccc(Cl)cc1CN1C(=O)c2ccccc2C1=O)c1cncs1"
A. f

###

Target: Metabotropic glutamate receptor 5 (Homo sapiens, UniProt P41594)
Experiment: Activity at human mGluR5 expressed in CHO cells assessed as potentiation of glutamate response by FLIPR assay
Assay type: cell-based
Conditions: cho
readout.type: pEC50
The read-out pEC50 is expressed as -log10 of concentration in moles per litre.

Q. So what does the record say about pEC50 for "O=C(Nc1ccc(Cl)cc1CN1C(=O)c2ccccc2C1=O)c1ccccn1" ?
A. 6.60

###

Target: Metabotropic glutamate receptor 5 (Homo sapiens, UniProt P41594)
Assay: Activity at human mGluR5 expressed in CHO cells assessed as potentiation of glutamate response by FLIPR assay relative to glutamate
Format: cell-based
readout.type: Activity
Returns: the value as a bare number; no unit string appended.

{"columns": ["entry.smiles", "Activity"],
 "data": [
  ["COc1ccc2c(c1OC)C(=O)N(Cc1cc(Br)ccc1NC(=O)c1ccccn1)C2=O", 0.6],
  ["O=C(Nc1ccc(Cl)cc1CN1C(=O)c2ccccc2C1=O)c1cncs1", 9.2]
]}

Now, please, on to the next molecule.
Q. Requested read-out Activity, target or system Metabotropic glutamate receptor 5 (Homo sapiens, UniProt P41594), entry "COc1ccccc1C(=O)Nc1ccc(Cl)cc1CN1C(=O)c2ccccc2C1=O"
A. 0.6

###

Target: UniProt:P41594
Experiment: Activity at human mGluR5 expressed in CHO cells assessed as potentiation of glutamate response by FLIPR assay relative to glutamate
Type: cell-based
readout.type: Activity
Returns: the value as a bare number; no unit string appended.

Worked cases, answers included:
{"columns": ["entry.smiles", "system.under.test", "Activity"],
 "data": [
  ["CCOc1cccc2c1C(=O)N(Cc1cc(Br)ccc1NC(=O)c1ccccn1)C2=O", "UniProt:P41594", 10.7],
  ["O=C(Nc1ccc(Cl)cc1CN1C(=O)c2ccc(F)cc2C1=O)c1ccccn1", "UniProt:P41594", 4.6]
]}

Now, please, on to the next molecule.
Q. Requested read-out Activity, target or system UniProt:P41594, entry "COc1ccc2c(c1OC)C(=O)N(Cc1cc(Cl)ccc1NC(=O)c1ccccn1)C2=O"
A. 0.6

###

# EC50 values compiled below
Biological target: Metabotropic glutamate receptor 5 (Homo sapiens)
Assay: Activity at human mGluR5 expressed in CHO cells assessed as potentiation of glutamate response by FLIPR assay
Format: cell-based

{"columns": ["entry.smiles", "system.under.test", "EC50"],
 "data": [
  ["O=C(Nc1ccc(Cl)cc1CN1C(=O)c2ccccc2C1=O)c1ccccc1", "Metabotropic glutamate receptor 5 (Homo sapiens)", "> 100 µM"],
  ["O=C(Nc1cccc(F)c1CN1C(=O)c2ccccc2C1=O)c1ccccn1", "Metabotropic glutamate receptor 5 (Homo sapiens)", "> 100 µM"],
  ["COc1ccccc1C(=O)Nc1ccc(Cl)cc1CN1C(=O)c2ccccc2C1=O", "Metabotropic glutamate receptor 5 (Homo sapiens)", "> 100 µM"]
]}

Now, please, on to the next molecule.
Q. So what does the record say about EC50 for "COc1ccc2c(c1OC)C(=O)N(Cc1cc(Br)ccc1NC(=O)c1ccccn1)C2=O" ?
A. > 100 µM

###

# pEC50 values compiled below
Target: Metabotropic glutamate receptor 5 (Homo sapiens)
Test: Activity at human mGluR5 expressed in CHO cells assessed as potentiation of glutamate response by FLIPR assay
Format: cell-based
The read-out pEC50 is expressed as -log10 of concentration in moles per litre.

Worked cases, answers included:
{"columns": ["entry.smiles", "system.under.test", "pEC50"],
 "data": [
  ["O=C(Nc1ccc(Br)cc1CN1C(=O)c2ccc(F)cc2C1=O)c1ccccn1", "Metabotropic glutamate receptor 5 (Homo sapiens)", 6.03],
  ["COc1cccc(C(=O)Nc2ccc(Cl)cc2CN2C(=O)c3ccccc3C2=O)c1", "Metabotropic glutamate receptor 5 (Homo sapiens)", 5.82],
  ["O=C(Nc1ccc(F)cc1CN1C(=O)c2ccccc2C1=O)c1ccccn1", "Metabotropic glutamate receptor 5 (Homo sapiens)", 5.82],
  ["O=C(Nc1ccc(Cl)cc1CN1C(=O)c2ccccc2C1=O)C1CCCCC1", "Metabotropic glutamate receptor 5 (Homo sapiens)", 5.82],
  ["O=C(Nc1ccc(Br)cc1CN1C(=O)c2ccccc2C1=O)c1ccccn1", "Metabotropic glutamate receptor 5 (Homo sapiens)", 6.12]
]}

Now, please, on to the next compound.
Q. So what does the record say about pEC50 for "CCOc1cccc2c1C(=O)N(Cc1cc(Br)ccc1NC(=O)c1ccccn1)C2=O" ?
A. 6.14
